This collection of values is drawn from patent US20050032873A1.

STUDY SYSTEM: serotonin transporter (Rattus norvegicus, UniProt P31652)
Construct: displace ^3H-paroxetine from male rat cortical membranes; from tissue; host or cells: male rat cortical membranes
Sequence (P31652 whole entry): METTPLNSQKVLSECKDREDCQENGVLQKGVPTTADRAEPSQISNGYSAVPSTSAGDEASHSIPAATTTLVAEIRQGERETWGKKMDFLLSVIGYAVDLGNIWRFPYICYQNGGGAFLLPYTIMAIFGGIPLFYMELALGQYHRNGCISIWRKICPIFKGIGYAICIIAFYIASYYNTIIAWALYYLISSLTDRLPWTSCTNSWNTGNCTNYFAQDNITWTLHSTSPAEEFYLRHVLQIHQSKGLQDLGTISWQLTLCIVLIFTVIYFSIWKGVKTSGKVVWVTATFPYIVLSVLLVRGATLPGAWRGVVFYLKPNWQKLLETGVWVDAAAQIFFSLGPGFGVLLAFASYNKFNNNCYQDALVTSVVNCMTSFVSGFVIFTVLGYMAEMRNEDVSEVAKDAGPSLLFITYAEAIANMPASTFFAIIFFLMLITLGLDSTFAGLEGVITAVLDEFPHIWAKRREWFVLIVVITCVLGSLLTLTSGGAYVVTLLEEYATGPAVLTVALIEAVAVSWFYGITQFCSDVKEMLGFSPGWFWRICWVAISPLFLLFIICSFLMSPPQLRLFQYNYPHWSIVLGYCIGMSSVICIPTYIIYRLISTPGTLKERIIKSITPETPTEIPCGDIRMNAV
ASSAY REMARKS: 5-HT transporter affinity: displacement of 3H-paroxetine from male rat cortical membranes
Format: binding
STATED CONDITIONS: displacement of 3H-paroxetine; male rat cortical membranes; read-out: 5-HT Transporter Affinity Ki
PROPERTY LABEL: Ki (nM)

Sample records with Ki:
COC(=O)c1ccc(F)c2c1C[C@@H](N(CCCCc1c[nH]c3ccc(F)cc13)C1CCC1)CO2 [Compound 58b] : 29.2
CCCN(C(C)CCc1c[nH]c2ccc(F)cc12)C1COc2c(F)ccc(C(N)=O)c2C1 (single isomer, unassigned) [Compound 12b] : 50
NC(=O)c1ccc(F)c2c1OCC(N(CCCc1c[nH]c3c(F)cc(F)cc13)C1CCC1)C2 (stereo not drawn) : 162
NC(=O)c1ccc(F)c2c1CC(N(CC1CCc3[nH]c4ccc(F)cc4c3C1)C1CCC1)CO2 (single isomer, unassigned; (+)) [Compound 174c] : 1100

A: CC(C)CN(CCCc1c[nH]c2ccc(F)cc12)C1COc2cccc(C(N)=O)c2C1 (stereo not drawn)
B: NC(=O)c1ccc(F)c2c1CC(NCCCCc1c[nH]c3ccc(F)cc13)CO2 (stereo not drawn)
QUERY: Between the two listed entries A and B , which has its Ki at the higher number? Answer with the label corresponding to your selection.
RESULT: A
(A: 1190 nM, B: 4.46 nM)
